Cited source for all entries: patent US20120094909A1

target: T1, human PCSK9 (proprotein convertase subtilisin kexin type 9) (human, UniProt Q8NBP7 31-692); test: FRET, competitor EGFA peptide
T1 construct: Directly immobilized (SPR ProteOn), biotinylated (BLI), or in solution, depending on the assay; also called hPCSK9
test.readout: IC50 (nM)
Express your answer in nM, writing the number without its unit.

These solved cases illustrate the format of a correct answer.
- 1459D05 (designed binder, also called ATI000891; ATI-891) MGVSDVPRDLEVVAATPTSLLISWPPPSHGYGYYRITYGETGGNSPVQEFTVPPGKGTATISGLKPGVDYTITVYAVEYPYKHSGYYHRPISINYRTEIDKPSQHHHHHH: 4
- 2382B10 (designed binder, Anti-PCSK9 Adnectin, His6-tagged) MGVSDVPRDLEVVAATPTSLLISWDAPADAYGYYRITYGETGGNSPVQEFTVPSSKGTATISGLKPGVDYTITVYAVEYDFPGSGYYHRPISINYRTEIDKPSQHHHHHH: 3
- 2381G09 (designed binder, Anti-PCSK9 Adnectin, His6-tagged) MGVSDVPRDLEVVAATPTSLLISWDAPAGDGYGYYRITYGETGGNSPVQEFTVPVSKGTATISGLKPGVDYTITVYAVEFTFPGAGYYHRPISINYRTEIDKPSQHHHHHH: 3.1

Let us examine a further case.
-- ask So what's the measured IC50 for this one? 1784F03 (designed binder, Anti-PCSK9 Adnectin, His6-tagged) MGVSDVPRDLEVVAATPTSLLISWRPPIHAYGYYRITYGETGGNSPVQEFTVPIVEGTATISGLKPGVDYTITVYAVEYTFKHSGYYHRPISINYRTEIDKPSQHHHHHH
-- reply 2
